Molecular target: hCA IX (Homo sapiens)
Assay: stopped-flow CO2 hydrase assay, hCA IX
Conditions: recombinant enzyme, stopped-flow CO2 hydrase assay, mean from 3 different assays, errors ± 5–10%
Property Name: Ki (nM)

CCNS(=O)(=O)c1ccc2nc(-c3ccc(O)c(C(=O)OC)c3)[nH]c2c1    390
COC(=O)c1ccc(-c2nc3ccc(S(N)(=O)=O)cc3[nH]2)cc1    29.6
NS(=O)(=O)c1ccc2nc(Cc3ccc(O)cc3)[nH]c2c1    73.9

[I] CCNS(=O)(=O)c1ccc2nc(-c3ccc(O)c(C(=O)O)c3)[nH]c2c1
[II] NS(=O)(=O)c1ccc2nc(CCc3ccc(O)c(C(=O)O)c3)[nH]c2c1
Larger number for Ki: I , or II ? State the label of the item chosen.
I

[A] NS(=O)(=O)c1ccc2nc(-c3ccc(O)cc3)[nH]c2c1
[B] NS(=O)(=O)c1ccc2nc(-c3ccc(O)c(C(=O)O)c3)[nH]c2c1
Of A and B , which carries the smaller reported Ki figure? State the label of the item chosen.
A

[P] NS(=O)(=O)c1ccc2nc(-c3ccccc3)[nH]c2c1
[Q] COC(=O)c1cc(-c2nc3ccc(S(N)(=O)=O)cc3[nH]2)ccc1O
Larger number for Ki: P , or Q ? State the label of the item chosen.
P
(P: 47.6 nM, Q: 2.2 nM)

====

Target: hCA I (Homo sapiens, UniProt P00915)
Sequence (P00915 whole entry): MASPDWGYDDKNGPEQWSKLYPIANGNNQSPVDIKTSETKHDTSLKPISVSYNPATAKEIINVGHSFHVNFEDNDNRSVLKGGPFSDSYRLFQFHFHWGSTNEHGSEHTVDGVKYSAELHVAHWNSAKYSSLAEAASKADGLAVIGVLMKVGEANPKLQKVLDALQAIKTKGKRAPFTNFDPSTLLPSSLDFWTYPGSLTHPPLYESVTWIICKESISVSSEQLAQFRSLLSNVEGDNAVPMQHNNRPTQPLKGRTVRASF
Test: stopped-flow CO2 hydrase assay, hCA I
Conditions: recombinant enzyme, mean from 3 different assays, errors ± 5–10%
Property Name: Ki (nM)

NS(=O)(=O)c1ccc2nc(-c3ccc(O)cc3)[nH]c2c1    238
NS(=O)(=O)c1ccc2nc(-c3ccc(C(=O)O)cc3)[nH]c2c1    97.6
COC(=O)c1cc(CCc2nc3ccc(S(N)(=O)=O)cc3[nH]2)ccc1O    427
NS(=O)(=O)c1ccc2nc(-c3ccc(O)c(C(=O)O)c3)[nH]c2c1    95.6

[P] NS(=O)(=O)c1ccc2nc(CCc3ccc(O)cc3)[nH]c2c1
[Q] NS(=O)(=O)c1ccc2nc(CCc3ccc(O)c(C(=O)O)c3)[nH]c2c1
Larger number for Ki: P , or Q ? State the label of the item chosen.
Q

====

Target: hCA II (Homo sapiens)
Construct: made in house
Assay: stopped-flow CO2 hydrase assay, hCA II
Format: biochemical
Conditions: recombinant enzyme, mean from 3 different assays, errors ± 5–10%
Property Name: Ki (nM)

Past entries and their recorded results:
COC(=O)c1ccc(-c2nc3ccc(S(N)(=O)=O)cc3[nH]2)cc1    185
CCNS(=O)(=O)c1ccc2nc(-c3ccc(O)c(C(=O)OC)c3)[nH]c2c1    8920
COC(=O)c1cc(CCc2nc3ccc(S(N)(=O)=O)cc3[nH]2)ccc1O    52.7
NS(=O)(=O)c1ccc2nc(CCc3ccc(O)c(C(=O)O)c3)[nH]c2c1    24.8
CCNS(=O)(=O)c1ccc2nc(-c3ccc(O)c(C(=O)O)c3)[nH]c2c1    7580

[a] COC(=O)c1cc(-c2nc3ccc(S(N)(=O)=O)cc3[nH]2)ccc1O
[b] NS(=O)(=O)c1ccc2nc(-c3ccc(O)c(O)c3)[nH]c2c1
Of a and b , which carries the smaller reported Ki figure? State the label of the item chosen.
a

[a] NS(=O)(=O)c1ccc2nc(Cc3ccc(O)cc3)[nH]c2c1
[b] NS(=O)(=O)c1ccc2nc(CCc3ccc(O)cc3)[nH]c2c1
[c] NS(=O)(=O)c1ccc2nc(-c3ccc(C(=O)O)cc3)[nH]c2c1
Given 3 molecules, produce a descending ranking by Ki. # respond with the labels, arranged in the requested order
c, a, b
(c: 133 nM, a: 91.9 nM, b: 47.8 nM)

====

Target: hCA IX (Homo sapiens)
Assay: stopped-flow CO2 hydrase assay, hCA IX
Conditions: recombinant enzyme, stopped-flow CO2 hydrase assay, mean from 3 different assays, errors ± 5–10%
Property Name: Ki (nM)

COC(=O)c1cc(CCc2nc3ccc(S(N)(=O)=O)cc3[nH]2)ccc1O    5.9
NS(=O)(=O)c1ccc2nc(-c3ccc(C(=O)O)cc3)[nH]c2c1    64.3

[A] NS(=O)(=O)c1ccc2nc(CCc3ccc(O)cc3)[nH]c2c1
[B] NS(=O)(=O)c1ccc2nc(-c3ccc(O)c(O)c3)[nH]c2c1
Larger number for Ki: A , or B ? State the label of the item chosen.
B
(B: 41.6 nM, A: 14.4 nM)

====

Molecular target: hCA I (Homo sapiens, UniProt P00915)
Assay: stopped-flow CO2 hydrase assay, hCA I
Conditions: recombinant enzyme, mean from 3 different assays, errors ± 5–10%
pKi: −log10 of the molar value.
Listed here are molecules together with their documented pKi.

Past entries and their recorded results:
NC(=O)c1ccc2nc(-c3ccc(O)c(C(=O)O)c3)[nH]c2c1    < 5.00
CCNS(=O)(=O)c1ccc2nc(-c3ccc(O)c(C(=O)O)c3)[nH]c2c1    < 5.00

Below: the item to evaluate.
Write down pKi measured for item COC(=O)c1ccc(-c2nc3ccc(S(N)(=O)=O)cc3[nH]2)cc1
6.68

====

Target: hCA II (Homo sapiens, UniProt P00918)
Test: stopped-flow CO2 hydrase assay, hCA II
Conditions: recombinant enzyme, mean from 3 different assays, errors ± 5–10%
pKi: −log10 of the molar value.
Property Name: pKi

NS(=O)(=O)c1ccc2nc(-c3ccc(O)cc3)[nH]c2c1 [Compound 6]    6.99
NS(=O)(=O)c1ccc2nc(-c3ccccc3)[nH]c2c1 [Compound 9]    6.98
NS(=O)(=O)c1ccc2nc(-c3ccc(O)c(C(=O)O)c3)[nH]c2c1 [Compound 14]    7.16
